Entry source: PubChem BioAssay AID449762

Please respond with reported IC90 for every item in the list.
System: M. tuberculosis H37Rv growth inhibition, 7H9 media
ASSAY_PROCEDURE: M. tuberculosis growth inhibition, HTS (AID 449762);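 further: bacterial growth assessed after seven days of incubation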
REPORTED_CONDITIONS: measured here: IC90 growth inhibition
Records with an inconclusive call do not appear.

Previously resolved entries follow.
>>> print(df.to_string())
                              compound  value_type  data_value
0       CCc1cc(C(=O)Nc2ccc(C)cc2Br)cs1        IC90    > 100 µM
1  Cc1nc(SCC(=O)NC2CCCCC2)[nH]c(=O)c1C        IC90    < 0.2 µM

Below: the item to evaluate.
Measured IC90 of CCOC(=O)c1cnc2ccc(OCC)cc2c1N1CCN(c2ccccc2)CC1 : > 100 µM

====

Please respond with reported IC90 for every item in the list.
System: M. tuberculosis H37Rv growth inhibition, 7H9 media
ASSAY_PROCEDURE: M. tuberculosis growth inhibition, HTS (AID 449762);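 further: bacterial growth assessed after seven days of incubation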
REPORTED_CONDITIONS: measured here: IC90 growth inhibition
Records with an inconclusive call do not appear.
Answers are plain numbers, in µM.

Previously resolved entries follow.
In [3]: df
Out[3]:
                                   compound  value_type  data_value
0  O=C1C2(Cl)C3(Cl)C4(Cl)C(Cl)(Cl)C5(Cl)C3(Cl)C1(Cl)C5(Cl)C24Cl (stereo not given)        IC90          53
1  CCOc1ccc(NCc2cccn2-c2nnc(N3CCC(C(=O)NCCCN4C(C)CCCC4C)CC3)s2)cc1 (stereo not given)        IC90        90.9
2  CC1CCc2c(C(=O)Nc3nccs3)csc2C1 (stereo not given)        IC90        22.8
3   c1ccc2c(c1)CCN(c1nc3cc4c(cc3s1)OCCO4)C2        IC90        16.9
4  Ic1ccccc1CN[C@@H]1C2CCN(CC2)[C@@H]1C(c1ccccc1)c1ccccc1        IC90        38.4

Below: the item to evaluate.
Measured IC90 of COc1ccc2c(c1)CC/C(=C\C=C\c1ccccc1OC)C2=O : 17.8

====

System: M. tuberculosis H37Rv growth inhibition, 7H9 media
ASSAY_PROCEDURE: M. tuberculosis growth inhibition, HTS (AID 449762);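 further: bacterial growth assessed after seven days of incubation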
REPORTED_CONDITIONS: measured here: IC90 growth inhibition
Results filed as inconclusive are left out.
Please respond with reported IC90 for every item in the list.

                                   compound                                    system  data_value
0  Nc1c(C(=O)OCC2CCCO2)c2nc3ccccc3nc2n1C1CCCC1 (centres undefined)  M. tuberculosis H37Rv growth inhibition, 7H9 media    > 100 µM

Could you tell me IC90 for each of these compounds? They are listed below.
1. COc1ccc(C2c3[nH]c4ccccc4c3CCN2C(=O)c2cc3ncccn3n2)c(F)c1 (centres undefined)
2. CN1CCN(/N=C/c2c3ccccc3c(Cl)c3ccccc23)CC1
3. CCOC(=O)c1ccc2c(c1)C(=O)N(C1CCCCC1)C2=O

*A*
1: > 100 µM; 2: > 100 µM; 3: > 100 µM
